From: patent US20230365559A1

biological target: human PI3Kα (p110α/p85α) (Homo sapiens, UniProt P42336); assay: Inhibition of PI3Kα kinase activity, ADP-Glo Assay (Reaction Biology); settings: 10 μM ATP; mean of two replicates; Table 12; read-out: Inhibition of kinase activity (as IC50) PICK
Sequence (P42336 whole entry): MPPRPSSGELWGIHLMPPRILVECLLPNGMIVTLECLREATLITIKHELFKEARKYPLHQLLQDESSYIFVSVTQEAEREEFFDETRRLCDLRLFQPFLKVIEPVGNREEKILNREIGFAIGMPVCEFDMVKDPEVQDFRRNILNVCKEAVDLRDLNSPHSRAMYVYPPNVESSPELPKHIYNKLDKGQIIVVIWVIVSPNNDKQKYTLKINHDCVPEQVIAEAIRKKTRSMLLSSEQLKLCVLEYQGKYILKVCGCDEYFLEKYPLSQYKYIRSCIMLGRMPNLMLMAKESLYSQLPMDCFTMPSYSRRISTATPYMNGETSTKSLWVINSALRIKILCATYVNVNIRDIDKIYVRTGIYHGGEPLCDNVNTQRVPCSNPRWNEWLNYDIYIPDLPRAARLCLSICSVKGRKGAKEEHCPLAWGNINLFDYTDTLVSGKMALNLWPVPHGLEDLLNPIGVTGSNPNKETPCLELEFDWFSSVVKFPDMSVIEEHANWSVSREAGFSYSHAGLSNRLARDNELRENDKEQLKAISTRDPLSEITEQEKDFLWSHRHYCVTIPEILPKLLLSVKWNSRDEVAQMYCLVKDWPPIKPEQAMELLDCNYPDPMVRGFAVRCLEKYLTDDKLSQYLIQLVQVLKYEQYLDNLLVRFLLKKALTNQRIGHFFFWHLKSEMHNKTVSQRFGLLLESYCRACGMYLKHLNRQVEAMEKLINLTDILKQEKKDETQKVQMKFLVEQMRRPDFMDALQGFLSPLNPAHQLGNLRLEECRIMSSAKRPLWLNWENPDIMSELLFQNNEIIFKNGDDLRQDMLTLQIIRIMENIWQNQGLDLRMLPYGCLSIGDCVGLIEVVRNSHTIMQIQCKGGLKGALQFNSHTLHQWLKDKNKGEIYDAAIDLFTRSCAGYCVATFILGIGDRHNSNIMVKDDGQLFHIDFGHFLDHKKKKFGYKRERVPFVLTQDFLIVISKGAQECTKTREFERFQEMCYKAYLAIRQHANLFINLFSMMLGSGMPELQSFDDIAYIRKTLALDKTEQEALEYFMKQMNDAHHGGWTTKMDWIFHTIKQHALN
Sequence (P27986 whole entry partner): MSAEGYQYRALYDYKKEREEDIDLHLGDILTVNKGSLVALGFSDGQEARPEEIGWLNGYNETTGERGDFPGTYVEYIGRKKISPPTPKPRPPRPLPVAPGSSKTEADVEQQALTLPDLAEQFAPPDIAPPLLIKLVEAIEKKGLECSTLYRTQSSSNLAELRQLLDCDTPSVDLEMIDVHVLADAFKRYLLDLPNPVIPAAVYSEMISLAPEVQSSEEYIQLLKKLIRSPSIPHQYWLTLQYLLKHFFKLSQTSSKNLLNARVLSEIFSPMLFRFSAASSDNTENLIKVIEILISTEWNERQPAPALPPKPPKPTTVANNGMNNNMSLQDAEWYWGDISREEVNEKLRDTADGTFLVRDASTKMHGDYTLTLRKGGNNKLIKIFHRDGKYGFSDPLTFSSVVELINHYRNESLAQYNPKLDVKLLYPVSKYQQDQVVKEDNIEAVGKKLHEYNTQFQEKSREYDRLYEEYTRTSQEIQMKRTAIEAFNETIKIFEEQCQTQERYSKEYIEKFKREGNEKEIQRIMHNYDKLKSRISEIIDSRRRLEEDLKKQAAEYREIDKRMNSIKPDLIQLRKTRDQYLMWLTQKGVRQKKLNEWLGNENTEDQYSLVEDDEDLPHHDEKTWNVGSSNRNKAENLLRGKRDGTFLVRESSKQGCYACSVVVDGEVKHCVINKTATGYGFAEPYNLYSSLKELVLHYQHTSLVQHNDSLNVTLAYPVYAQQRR
EXPERIMENTAL READOUT: IC50 (µM)
// units = µM; emit number, no label

Below, each entry is followed by its recorded IC50 result.
# COMPOUND, IC50, µM
records = [
    ("COc1ccc(N(C(=O)OCc2cnc([N+](=O)[O-])n2C)c2cc3c(cn2)n(C)c(=O)n3C2CCC(OC)CC2)c(C)c1 (stereo not shown) [Compound 258]", 39.2),
    ("Cc1nc(Cl)ccc1Nc1cc2c(cn1)n(C)c(=O)n2C1CCOCC1 [Compound 219]", 20.8),
    ("COc1ccc(Nc2cc3c(cn2)n(C)c(=O)n3C2CCOCC2)c(C)n1 [Compound 221]", 9.36),
    ("Cc1cc(Cl)ccc1Nc1cc2c(cn1)n(C)c(=O)n2CCC1CCOCC1 [Compound 147]", 0.49),
]

[Q] Could you share which IC50 value was measured for COc1ccc(-n2c(=O)n(C)c3cnc(Nc4ccc(O)cc4C)cc32)cc1 [Compound 200] ?
[A] 0.264

[Q] Any idea what IC50 was measured for Cc1cc(Cl)ncc1Nc1cc2c(cn1)n(C)c(=O)n2C1CCOCC1 [Compound 218] ?
[A] 14.2

[Q] Given the compound COc1cc(C)c(Nc2cc3c(cn2)n(C)c(=O)n3C2CCOCC2)cn1 [Compound 126] , what is its reported IC50?
[A] 4.23

---

target: human mTOR (Homo sapiens, UniProt P42345); assay: Inhibition of mTOR kinase activity, HotSpot assay, phosphorylation of 4EPB1; conditions: Inhibition of kinase activity (as IC50) mTOR (nM), 10 μM ATP; mean of two replicates; Table 12
EXPERIMENTAL READOUT: IC50 (nM)
Answer format: numeric, nM implied, no suffix.

# COMPOUND, EXPERIMENTAL READOUT, NUMERIC READOUT
records = [
    ("Cc1nc2cc(Nc3cc4c(cn3)n(C)c(=O)n4C3CCOCC3)c(C)cc2o1 [Compound 131]", "IC50", 13400),
    ("Cc1cc(Cl)ncc1Nc1cc2c(cn1)n(C)c(=O)n2C1CCOCC1 [Compound 218]", "IC50", 68400),
    ("COc1ccc(Nc2cc3c(cn2)n(C)c(=O)n3C2CCC(NC(=O)OCc3cnc([N+](=O)[O-])n3C)CC2)c(C)c1 (centres unmarked) [Compound 253]", "IC50", 11400),
    ("COc1ccc(-c2ccc(Nc3cc4c(cn3)n(C)c(=O)n4C3CCOCC3)cc2)cn1 [Compound 223]", "IC50", 41200),
    ("COc1ccc(-n2c(=O)n(C)c3cnc(Nc4ccc(O)cc4C)cc32)cc1 [Compound 200]", "IC50", 19500),
]

[Q] Which IC50 is reported with human mTOR (Homo sapiens, UniProt P42345) for this entry: Cc1cc(OCc2cnc([N+](=O)[O-])n2C)ccc1Nc1cc2c(cn1)n(C)c(=O)n2C1CCCC1 [Compound 234] ?
[A] 30000

[Q] Hello, I am looking for reported IC50 with human mTOR (Homo sapiens, UniProt P42345) for COCCn1c(=O)n(C)c2cnc(Nc3ccc(Cl)cc3C)cc21 [Compound 105] . Could you help?
[A] 71400

[Q] Report IC50 for Cc1cc(Cl)ccc1Nc1cc2c(cn1)n(C)c(=O)n2CCC1CCOCC1 [Compound 147] tested on human mTOR (Homo sapiens, UniProt P42345).
[A] 7900

[Q] // lookup IC50 | system=human mTOR (Homo sapiens, UniProt P42345) | key= COc1cc(C)c(Nc2cc3c(cn2)n(C)c(=O)n3C2CCOCC2)cc1OC [Compound 216]
[A] 42700

[Q] What IC50 appears in the records for this compound with human mTOR (Homo sapiens, UniProt P42345)? Cc1cc(Cl)cnc1Nc1cc2c(cn1)n(C)c(=O)n2C1CCOCC1 [Compound 217]
[A] 76300

[Q] What is its IC50 for human mTOR (Homo sapiens, UniProt P42345)? Entry: Cc1nc2cc(C)c(Nc3cc4c(cn3)n(C)c(=O)n4C3CCOCC3)cc2o1 [Compound 132]
[A] 60200

---

molecular target: human DNA-PK (Homo sapiens); experiment: Inhibition of DNA-PKcs kinase activity, HotSpot assay (Reaction Biology), [γ-33P]-ATP phosphorylation of peptide substrate; format: biochemical; conditions: 10 μM ATP, 10 μg/ml DNA; mean of two replicates; Table 12; read-out: Inhibition of kinase activity (as IC50) DNA-PK (converted)
IC50 for assorted molecules
Answer format: numeric, nM implied, no suffix.

Would you please look over these solved cases?
# MOLECULE, EXPERIMENTAL READOUT, NUMERIC READOUT
rows = [
    ("COc1ccc(N(C(=O)OCc2ncc([N+](=O)[O-])n2C)c2cc3c(cn2)n(C)c(=O)n3C2CCOCC2)c(C)c1", "IC50", 1260),
    ("COc1ccc(Nc2cc3c(cn2)n(C)c(=O)n3C2CCC(NC(=O)OCc3cnc([N+](=O)[O-])n3C)CC2)c(C)c1 (stereo not drawn)", "IC50", 58),
]

[Q] Which IC50 value is on record for Cc1cc2ncc(C(=O)O)n2cc1Nc1cc2c(cn1)n(C)c(=O)n2C1CCOCC1 ?
[A] 3.6

[Q] # IC50 lookup, item Cc1nc(Cl)ccc1Nc1cc2c(cn1)n(C)c(=O)n2C1CCOCC1
[A] 270

[Q] For the molecule COc1ccc(-n2c(=O)n(C)c3cnc(Nc4cc(S(C)(=O)=O)ccc4C)cc32)cc1 , what IC50 is on record?
[A] 0.09

[Q] Requested field: IC50. Item: Cc1cc(Cl)ccc1N(C(=O)OCc1cnc([N+](=O)[O-])n1C)c1cc2c(cn1)n(C)c(=O)n2C1CCOCC1
[A] 203

[Q] # input molecule: COc1cc(C)c(Nc2cc3c(cn2)n(C)c(=O)n3C2CCOCC2)cn1 ; wanted: its IC50
[A] 9.06

[Q] Using the record for Cn1c(=O)n(-c2ccc(C(C)(C)C#N)cc2)c2cc(Nc3ccc4nccnc4c3)ncc21 , report its IC50.
[A] 43

[Q] // query IC50 value for entry Cc1cc(OCc2cnc([N+](=O)[O-])n2C)ccc1Nc1cc2c(cn1)n(C)c(=O)n2C1CCCC1
[A] 766

[Q] Param item = Cc1cc(OCc2ccccc2)ccc1Nc1cc2c(cn1)n(C)c(=O)n2C1CCOCC1 ; retrieve measured IC50.
[A] 422

[Q] Which IC50 is listed for Cc1cc2ncnn2cc1Nc1cc2c(cn1)n(C)c(=O)n2C1CCOCC1 ?
[A] 14.3

[Q] Reported IC50, molecule COc1ccc(Nc2cc3c(cn2)n(C)c(=O)n3C2CCN(C(=O)OCc3cnc([N+](=O)[O-])n3C)CC2)c(C)c1 : ____
[A] 104

[Q] Fill in the blank: the reported IC50 of COc1ccc(N(C(=O)OCc2cnc([N+](=O)[O-])n2C)c2cc3c(cn2)n(C)c(=O)n3C2CCC(OC)CC2)c(C)c1 (stereo not drawn) is ____.
[A] 754

[Q] Fill in: IC50 of COc1ccc(Nc2cc3c(cn2)n(C)c(=O)n3C2CCOCC2)c(C)n1 is ___
[A] 441

[Q] State the recorded IC50 for this entry: COC1CCC(n2c(=O)n(C)c3cnc(Nc4ccc(Cl)cc4C)cc32)CC1 (stereo not drawn)
[A] 0.64

---

target: human PI3Kα (p110α/p85α) (Homo sapiens, UniProt P42336); experiment: Inhibition of PI3Kα kinase activity, ADP-Glo Assay (Reaction Biology); conditions: 10 μM ATP; mean of two replicates; Table 12; read-out: Inhibition of kinase activity (as IC50) PICK
EXPERIMENTAL READOUT: IC50

Worked examples, 2 molecules total:
# ITEM SMILES, IC50
data = [
    ("COc1ccc(N(C(=O)OCc2ncc([N+](=O)[O-])n2C)c2cc3c(cn2)n(C)c(=O)n3C2CCOCC2)c(C)c1", "> 100 µM"),
    ("Cc1cc(Cl)ccc1N(C(=O)OCc1ccccc1)c1cc2c(cn1)n(C)c(=O)n2C1CCOCC1", "> 10 µM"),
]

[Q] Write down the reported IC50 of Cc1nc2ccc(Nc3cc4c(cn3)n(C)c(=O)n4C3CCOCC3)cc2o1 , test system: human PI3Kα (p110α/p85α) (Homo sapiens, UniProt P42336).
[A] > 10 µM
